- Tested on: SF-268
- Assay explanation: cells
- Experimental parameters: Homo sapiens, SF-268, 48 h, read-out: LC50
Can you tell me CC50 for the items I'm about to list?
Answers are plain numbers, in µM.

Below are worked cases with known answers.
[Q] Given CN(C)c1nc(NCCNS(=O)(=O)c2ccc(C(=O)/C=C/c3ccccc3)cc2)nc(N2CCOCC2)n1 [23a] , report its CC50 on SF-268.
[A] 70.1

[Q] Report value: CC50, system: SF-268, compound: CN(C)c1nc(NCCNS(=O)(=O)c2ccc(C(=O)/C=C/c3ccc(C(F)(F)F)cc3)cc2)nc(N2CCOCC2)n1 [23g]
[A] 87.9

Provide CC50 for all items below, preserving their order.
1. CN(C)c1nc(NCCNS(=O)(=O)c2ccc(C3=Nc4c(N)nc(N)nc4NC(c4ccc(C(F)(F)F)cc4)C3)cc2)nc(Nc2ccc(F)cc2)n1 (stereo not shown) [31g]
2. COc1cc(/C=C/C(=O)c2ccc(S(=O)(=O)NCCNc3nc(N(C)C)nc(N4CCOCC4)n3)cc2)cc(OC)c1OC [23d]
3. Nc1nc(N)c2c(n1)NC(c1ccc(F)cc1)CC(c1ccc(Nc3nc(NCCO)nc(Nc4ccc(Cl)cc4)n3)cc1)=N2 (stereo not shown) [33f]

[A]
[86, 77.2, 76]
